This collection of values is drawn from ChEMBL document CHEMBL3585308.

# measured.on: Nuclear factor erythroid 2-related factor 2 (Homo sapiens) (UniProt Q16236)
# experiment.summary: Activation of Nrf2 in human HepG2-ARE-C8 cells assessed as upregulation of ARE level at 20 uM after 12 hrs by luciferase reporter gene assay relative to control
# Type: cell-based

- structure.smiles.string: "O=[N+]([O-])c1cccc(-c2nc(-c3ccc4nc[nH]c4c3)no2)c1"
  measured.on: "Nuclear factor erythroid 2-related factor 2 (Homo sapiens) (UniProt Q16236)"
  fold change (FC): 11.6
- structure.smiles.string: "Cn1nnc2cc(-c3noc(-c4ccccc4)n3)ccc21"
  measured.on: "Nuclear factor erythroid 2-related factor 2 (Homo sapiens) (UniProt Q16236)"
  fold change (FC): 5.65
- structure.smiles.string: "c1ccc2cc(-c3nc(-c4ccc5nc[nH]c5c4)no3)ccc2c1"
  measured.on: "Nuclear factor erythroid 2-related factor 2 (Homo sapiens) (UniProt Q16236)"
  fold change (FC): 6.72
- structure.smiles.string: "COc1ccc(OC)c(-c2nc(-c3ccc4nc[nH]c4c3)no2)c1"
  measured.on: "Nuclear factor erythroid 2-related factor 2 (Homo sapiens) (UniProt Q16236)"
  fold change (FC): 4.48
- structure.smiles.string: "c1ccc(-c2nc(-c3ccc4nc[nH]c4c3)no2)nc1"
  measured.on: "Nuclear factor erythroid 2-related factor 2 (Homo sapiens) (UniProt Q16236)"
  fold change (FC): 9.49
- structure.smiles.string: "Oc1cccc(-c2nc(-c3ccc4nc[nH]c4c3)no2)c1"
  measured.on: "Nuclear factor erythroid 2-related factor 2 (Homo sapiens) (UniProt Q16236)"
  fold change (FC): 8.62
- structure.smiles.string: "COc1cc(-c2nc(-c3ccc4nc[nH]c4c3)no2)cc(OC)c1OC"
  measured.on: "Nuclear factor erythroid 2-related factor 2 (Homo sapiens) (UniProt Q16236)"
  fold change (FC): 3.23
- structure.smiles.string: "CCc1ccc(-c2nc(-c3ccc4nc[nH]c4c3)no2)cc1"
  measured.on: "Nuclear factor erythroid 2-related factor 2 (Homo sapiens) (UniProt Q16236)"
  fold change (FC): 9.34
- structure.smiles.string: "c1ccc(-c2ccc(-c3nc(-c4ccc5nc[nH]c5c4)no3)cc2)cc1"
  measured.on: "Nuclear factor erythroid 2-related factor 2 (Homo sapiens) (UniProt Q16236)"
  fold change (FC): 2
- structure.smiles.string: "c1ccc2nc(-c3nc(-c4ccc5nc[nH]c5c4)no3)ccc2c1"
  measured.on: "Nuclear factor erythroid 2-related factor 2 (Homo sapiens) (UniProt Q16236)"
  fold change (FC): 20.5
- structure.smiles.string: "O=[N+]([O-])c1ccccc1-c1nc(-c2ccc3nc[nH]c3c2)no1"
  measured.on: "Nuclear factor erythroid 2-related factor 2 (Homo sapiens) (UniProt Q16236)"
  fold change (FC): 36.6
- structure.smiles.string: "CCCc1ccc(-c2nc(-c3ccc4nc[nH]c4c3)no2)cc1"
  measured.on: "Nuclear factor erythroid 2-related factor 2 (Homo sapiens) (UniProt Q16236)"
  fold change (FC): 6.07
- structure.smiles.string: "CC(C)(C)C1=CC(=O)C=CC1=O"
  measured.on: "Nuclear factor erythroid 2-related factor 2 (Homo sapiens) (UniProt Q16236)"
  fold change (FC): 1.41
- structure.smiles.string: "Cc1ccccc1-c1nc(-c2ccc3nc[nH]c3c2)no1"
  measured.on: "Nuclear factor erythroid 2-related factor 2 (Homo sapiens) (UniProt Q16236)"
  fold change (FC): 10.9

* * *

Below, each entry is listed alongside its reported fold change (FC).
# measured.on: Nuclear factor erythroid 2-related factor 2 (Homo sapiens) (UniProt Q16236)
# experiment.summary: Activation of Nrf2 in human HepG2-ARE-C8 cells assessed as upregulation of ARE level at 0.2 uM after 12 hrs by luciferase reporter gene assay relative to control
# Assay type: cell-based

- structure.smiles.string: "O=[N+]([O-])c1cccc(-c2nc(-c3ccc4nc[nH]c4c3)no2)c1"
  fold change (FC): 1.56
- structure.smiles.string: "COc1cc(-c2nc(-c3ccc4nc[nH]c4c3)no2)cc(OC)c1OC"
  fold change (FC): 2.24
- structure.smiles.string: "N#Cc1cccc(-c2nc(-c3ccc4nc[nH]c4c3)no2)c1"
  fold change (FC): 1.36
- structure.smiles.string: "Cc1nc2cc(-c3noc(-c4ccccc4Br)n3)ccc2o1"
  fold change (FC): 1.22
- structure.smiles.string: "O=[N+]([O-])c1ccc(-c2nc(-c3ccc4nc[nH]c4c3)no2)cc1"
  fold change (FC): 2.02
- structure.smiles.string: "N#Cc1ccc(-c2nc(-c3ccc4nc[nH]c4c3)no2)cc1"
  fold change (FC): 1.25
- structure.smiles.string: "c1ccc(-c2nc(-c3ccc4nc[nH]c4c3)no2)nc1"
  fold change (FC): 3.42
- structure.smiles.string: "COc1ccc(-c2nc(-c3ccc4nc[nH]c4c3)no2)cc1"
  fold change (FC): 2.72
- structure.smiles.string: "N#Cc1ccccc1-c1nc(-c2ccc3nc[nH]c3c2)no1"
  fold change (FC): 1.48

* * *

# measured.on: Nuclear factor erythroid 2-related factor 2 (Homo sapiens) (UniProt Q16236)
# Sequence (whole entry): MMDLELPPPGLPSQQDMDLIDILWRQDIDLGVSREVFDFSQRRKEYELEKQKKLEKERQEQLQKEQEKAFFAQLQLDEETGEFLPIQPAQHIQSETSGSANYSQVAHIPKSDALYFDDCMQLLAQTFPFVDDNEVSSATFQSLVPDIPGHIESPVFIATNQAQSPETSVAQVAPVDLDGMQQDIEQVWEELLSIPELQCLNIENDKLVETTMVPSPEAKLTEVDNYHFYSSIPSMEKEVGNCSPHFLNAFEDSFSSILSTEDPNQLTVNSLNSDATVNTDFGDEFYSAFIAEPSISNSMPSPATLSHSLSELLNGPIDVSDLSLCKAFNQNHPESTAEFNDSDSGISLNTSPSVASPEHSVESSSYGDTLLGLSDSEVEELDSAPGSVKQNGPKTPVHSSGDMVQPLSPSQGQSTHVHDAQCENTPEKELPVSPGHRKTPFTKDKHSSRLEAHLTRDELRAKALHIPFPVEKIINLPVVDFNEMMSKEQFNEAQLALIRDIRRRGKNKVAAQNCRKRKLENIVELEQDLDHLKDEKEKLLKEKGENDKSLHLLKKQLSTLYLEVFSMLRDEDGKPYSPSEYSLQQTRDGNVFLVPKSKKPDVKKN
# experiment.summary: Activation of Nrf2 in human HepG2-ARE-C8 cells assessed as upregulation of ARE level at 2 uM after 12 hrs by luciferase reporter gene assay relative to control
# Type: cell-based
fold change (FC) vs 4: less than gives Fulfilled; not less than gives Not fulfilled.

- structure.smiles.string: "Cn1cnc2ccc(-c3noc(-c4ccc5ccccc5c4)n3)cc21"
  measured.on: "Nuclear factor erythroid 2-related factor 2 (Homo sapiens) (UniProt Q16236)"
  class.label: "Fulfilled"
- structure.smiles.string: "Oc1ccccc1-c1nc(-c2ccc3nc[nH]c3c2)no1"
  measured.on: "Nuclear factor erythroid 2-related factor 2 (Homo sapiens) (UniProt Q16236)"
  class.label: "Fulfilled"
- structure.smiles.string: "Cc1cccc(-c2nc(-c3ccc4nc[nH]c4c3)no2)c1"
  measured.on: "Nuclear factor erythroid 2-related factor 2 (Homo sapiens) (UniProt Q16236)"
  class.label: "Not fulfilled"
- structure.smiles.string: "Brc1ccc(-c2nc(-c3ccc4nc[nH]c4c3)no2)cc1"
  measured.on: "Nuclear factor erythroid 2-related factor 2 (Homo sapiens) (UniProt Q16236)"
  class.label: "Not fulfilled"
- structure.smiles.string: "CC(C)(C)C1=CC(=O)C=CC1=O"
  measured.on: "Nuclear factor erythroid 2-related factor 2 (Homo sapiens) (UniProt Q16236)"
  class.label: "Fulfilled"
- structure.smiles.string: "O=[N+]([O-])c1ccccc1-c1nc(-c2ccc3nc[nH]c3c2)no1"
  measured.on: "Nuclear factor erythroid 2-related factor 2 (Homo sapiens) (UniProt Q16236)"
  class.label: "Not fulfilled"
- structure.smiles.string: "FC(F)(F)c1ccc(-c2nc(-c3ccc4nc[nH]c4c3)no2)cc1"
  measured.on: "Nuclear factor erythroid 2-related factor 2 (Homo sapiens) (UniProt Q16236)"
  class.label: "Not fulfilled"
- structure.smiles.string: "FC(F)(F)c1ccccc1-c1nc(-c2ccc3nc[nH]c3c2)no1"
  measured.on: "Nuclear factor erythroid 2-related factor 2 (Homo sapiens) (UniProt Q16236)"
  class.label: "Not fulfilled"
- structure.smiles.string: "Cn1cnc2ccc(-c3noc(-c4ccccc4)n3)cc21"
  measured.on: "Nuclear factor erythroid 2-related factor 2 (Homo sapiens) (UniProt Q16236)"
  class.label: "Not fulfilled"
- structure.smiles.string: "Cc1ccccc1-c1nc(-c2ccc3nc[nH]c3c2)no1"
  measured.on: "Nuclear factor erythroid 2-related factor 2 (Homo sapiens) (UniProt Q16236)"
  class.label: "Fulfilled"
- structure.smiles.string: "N#Cc1ccccc1-c1nc(-c2ccc3nc[nH]c3c2)no1"
  measured.on: "Nuclear factor erythroid 2-related factor 2 (Homo sapiens) (UniProt Q16236)"
  class.label: "Fulfilled"
- structure.smiles.string: "c1ccc(-c2nc(-c3ccc4nc[nH]c4c3)no2)cc1"
  measured.on: "Nuclear factor erythroid 2-related factor 2 (Homo sapiens) (UniProt Q16236)"
  class.label: "Not fulfilled"
- structure.smiles.string: "COc1cccc(-c2nc(-c3ccc4nc[nH]c4c3)no2)c1"
  measured.on: "Nuclear factor erythroid 2-related factor 2 (Homo sapiens) (UniProt Q16236)"
  class.label: "Fulfilled"
- structure.smiles.string: "N#Cc1ccc(-c2nc(-c3ccc4nc[nH]c4c3)no2)cc1"
  measured.on: "Nuclear factor erythroid 2-related factor 2 (Homo sapiens) (UniProt Q16236)"
  class.label: "Fulfilled"
- structure.smiles.string: "COc1ccccc1-c1nc(-c2ccc3nc[nH]c3c2)no1"
  measured.on: "Nuclear factor erythroid 2-related factor 2 (Homo sapiens) (UniProt Q16236)"
  class.label: "Fulfilled"
- structure.smiles.string: "c1ccc(-c2nc(-c3ccc4nc[nH]c4c3)no2)nc1"
  measured.on: "Nuclear factor erythroid 2-related factor 2 (Homo sapiens) (UniProt Q16236)"
  class.label: "Not fulfilled"
- structure.smiles.string: "c1cc2ccc(-c3nc(-c4ccc5nc[nH]c5c4)no3)cc2[nH]1"
  measured.on: "Nuclear factor erythroid 2-related factor 2 (Homo sapiens) (UniProt Q16236)"
  class.label: "Fulfilled"
- structure.smiles.string: "COC(=O)/C=C/C(=O)OC"
  measured.on: "Nuclear factor erythroid 2-related factor 2 (Homo sapiens) (UniProt Q16236)"
  class.label: "Fulfilled"
- structure.smiles.string: "Cn1cnc2ccc(-c3noc(-c4ccc5cc[nH]c5c4)n3)cc21"
  measured.on: "Nuclear factor erythroid 2-related factor 2 (Homo sapiens) (UniProt Q16236)"
  class.label: "Fulfilled"
- structure.smiles.string: "COc1ccc(-c2nc(-c3ccc4nc[nH]c4c3)no2)c(OC)c1"
  measured.on: "Nuclear factor erythroid 2-related factor 2 (Homo sapiens) (UniProt Q16236)"
  class.label: "Fulfilled"
- structure.smiles.string: "Cn1nnc2cc(-c3noc(-c4ccccc4)n3)ccc21"
  measured.on: "Nuclear factor erythroid 2-related factor 2 (Homo sapiens) (UniProt Q16236)"
  class.label: "Not fulfilled"
